target: DA uptake (Rattus norvegicus, UniProt P23977); construct: norepinephrine (NE) and dopamine into similarly prepared synaptosomes; assay: Inhibition of dopamine reuptake into rat brain synaptosomes; conditions: functional monoamine uptake
Sequence (P23977 whole entry): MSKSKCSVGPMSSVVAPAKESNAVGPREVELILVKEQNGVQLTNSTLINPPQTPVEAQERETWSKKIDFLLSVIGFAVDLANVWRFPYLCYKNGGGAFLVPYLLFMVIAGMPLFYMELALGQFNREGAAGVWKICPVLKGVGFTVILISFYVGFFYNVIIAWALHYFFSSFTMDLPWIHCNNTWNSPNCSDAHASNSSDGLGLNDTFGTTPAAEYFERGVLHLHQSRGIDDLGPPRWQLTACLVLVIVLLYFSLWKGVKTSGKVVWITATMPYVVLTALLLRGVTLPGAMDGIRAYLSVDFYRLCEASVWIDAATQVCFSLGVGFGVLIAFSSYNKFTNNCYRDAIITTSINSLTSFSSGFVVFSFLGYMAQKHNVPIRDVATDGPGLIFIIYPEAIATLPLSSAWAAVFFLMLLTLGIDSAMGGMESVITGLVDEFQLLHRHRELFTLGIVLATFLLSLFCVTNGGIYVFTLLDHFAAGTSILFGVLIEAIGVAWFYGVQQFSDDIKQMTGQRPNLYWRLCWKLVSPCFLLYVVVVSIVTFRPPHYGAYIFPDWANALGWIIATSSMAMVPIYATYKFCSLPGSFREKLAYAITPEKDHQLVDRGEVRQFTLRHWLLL
The following compounds are listed with their measured IC50 values.
Record the value in µM, omitting the unit from your answer.

> print(dat)
                                   compound                                       tgt  endpoint.value
1  N#Cc1ccc2c(c1)COC2(CCCN)c1ccc(F)cc1 (single isomer, unassigned; (-)) [(−)-Didesmethylcitalopram]  DA uptake (Rattus norvegicus, UniProt P23977)             2.7

Recorded IC50 for N#Cc1ccc2c(c1)COC2(CCCN)c1ccc(F)cc1 (single isomer, unassigned; (+)) [(+)-Didesmethylcitalopram] , please?
11

I would be grateful if you could share the reported IC50 for CNCCCC1(c2ccc(F)cc2)OCc2cc(C#N)ccc21 (single isomer, unassigned; (+)) [(+)-Desmethylcitalopram] .
7.6

====

Test system 5-HT Transporter (Homo sapiens), IC50 listed for each of the compounds.
Only the number, expressed in nM, is required.

> print(dat)
                                   compound  endpoint.value
1  N#Cc1ccc2c(c1)COC2(CCCN)c1ccc(F)cc1 (single isomer, unassigned; (-)) [(−)-Didesmethylcitalopram]              14

Could you share what IC50 was measured for N#Cc1ccc2c(c1)COC2(CCCN)c1ccc(F)cc1 (single isomer, unassigned; (+)) [(+)-Didesmethylcitalopram] , tested on 5-HT Transporter (Homo sapiens)?
219

====

molecular target: 5-HT Transporter (Rattus norvegicus)
Sequence (P31652 whole entry): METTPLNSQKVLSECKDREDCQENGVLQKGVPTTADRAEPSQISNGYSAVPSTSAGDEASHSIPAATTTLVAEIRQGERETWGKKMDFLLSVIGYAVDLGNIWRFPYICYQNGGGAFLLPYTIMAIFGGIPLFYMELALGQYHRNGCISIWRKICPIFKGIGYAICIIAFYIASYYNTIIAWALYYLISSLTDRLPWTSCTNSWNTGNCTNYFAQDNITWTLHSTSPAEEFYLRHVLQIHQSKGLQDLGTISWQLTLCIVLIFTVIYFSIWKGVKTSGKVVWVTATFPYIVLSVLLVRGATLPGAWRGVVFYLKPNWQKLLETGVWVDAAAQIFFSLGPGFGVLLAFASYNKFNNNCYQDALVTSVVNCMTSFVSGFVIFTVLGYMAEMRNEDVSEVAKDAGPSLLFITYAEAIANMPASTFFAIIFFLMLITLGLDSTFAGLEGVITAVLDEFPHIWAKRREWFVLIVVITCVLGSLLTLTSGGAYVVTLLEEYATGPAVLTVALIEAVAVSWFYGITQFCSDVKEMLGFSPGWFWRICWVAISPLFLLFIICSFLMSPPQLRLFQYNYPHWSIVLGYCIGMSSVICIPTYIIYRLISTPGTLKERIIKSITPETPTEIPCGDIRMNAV
measured.quantity: Ki (nM)
API: value field is a number in nM; no unit string.

Please review the following examples before continuing.
> print(dat)
                                   compound  endpoint.value
1  CNCCCC1(c2ccc(F)cc2)OCc2cc(C#N)ccc21 (single isomer, unassigned; (+)) [(+)-Desmethylcitalopram]            0.27
2  N#Cc1ccc2c(c1)COC2(CCCN)c1ccc(F)cc1 (single isomer, unassigned; (+)) [(+)-Didesmethylcitalopram]             3.9

Now for another entry.
Lab note: need Ki for N#Cc1ccc2c(c1)COC2(CCCN)c1ccc(F)cc1 (single isomer, unassigned; (-)) [(−)-Didesmethylcitalopram] on 5-HT Transporter (Rattus norvegicus), anyone have it?
5.5

====

Measurement record for NE Transporter (Homo sapiens, UniProt P23975); quantity recorded: Ki.
Write the numeric value and follow it with the unit.

As a guide, the following entries are already answered.
> print(dat)
                                   compound  endpoint.value
1  N#Cc1ccc2c(c1)COC2(CCCN)c1ccc(F)cc1 (single isomer, unassigned; (+)) [(+)-Didesmethylcitalopram]         22.4 µM
2  N#Cc1ccc2c(c1)COC2(CCCN)c1ccc(F)cc1 (single isomer, unassigned; (-)) [(−)-Didesmethylcitalopram]         5.12 µM

Ki for CNCCCC1(c2ccc(F)cc2)OCc2cc(C#N)ccc21 (single isomer, unassigned; (+)) [(+)-Desmethylcitalopram] ?
9.57 µM

====

biological target: NE uptake (Rattus norvegicus, UniProt Q63380); construct: norepinephrine (NE) and dopamine into similarly prepared synaptosomes; assay: Inhibition of norepinephrine reuptake into rat brain synaptosomes; details: functional monoamine uptake
Sequence (Q63380 1-617): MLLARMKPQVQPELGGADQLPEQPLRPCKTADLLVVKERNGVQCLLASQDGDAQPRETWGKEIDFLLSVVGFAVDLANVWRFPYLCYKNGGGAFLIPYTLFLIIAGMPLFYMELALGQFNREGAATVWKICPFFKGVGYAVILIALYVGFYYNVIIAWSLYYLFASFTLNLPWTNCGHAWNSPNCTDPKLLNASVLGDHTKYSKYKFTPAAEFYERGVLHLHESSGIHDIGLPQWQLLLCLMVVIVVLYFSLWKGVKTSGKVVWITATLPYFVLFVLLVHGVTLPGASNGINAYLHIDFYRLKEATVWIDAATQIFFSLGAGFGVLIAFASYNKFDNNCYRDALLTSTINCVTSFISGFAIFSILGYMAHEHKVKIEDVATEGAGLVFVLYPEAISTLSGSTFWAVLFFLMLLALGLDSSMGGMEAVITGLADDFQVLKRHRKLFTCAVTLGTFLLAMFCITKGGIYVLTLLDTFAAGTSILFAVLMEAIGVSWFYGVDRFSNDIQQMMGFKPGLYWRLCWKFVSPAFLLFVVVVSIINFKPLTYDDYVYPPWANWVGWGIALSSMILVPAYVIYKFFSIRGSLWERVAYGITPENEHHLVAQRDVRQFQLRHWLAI
measured.quantity: pIC50
Schema: pIC50 number; meaning minus log10 of the concentration expressed in molar units.

Some solved cases for reference:
> print(dat)
                                   molecule  endpoint.value
1  CN(C)CCCC1(c2ccc(F)cc2)OCc2cc(C#N)ccc21 (racemic) [Racemic Citalopram, reference compound]            5.31
2  N#Cc1ccc2c(c1)COC2(CCCN)c1ccc(F)cc1 (single isomer, unassigned; (-)) [(−)-Didesmethylcitalopram]            5.89
3  CNCCCC1(c2ccc(F)cc2)OCc2cc(C#N)ccc21 (single isomer, unassigned; (+)) [(+)-Desmethylcitalopram]            5.39

# returns recorded pIC50 (system: NE uptake (Rattus norvegicus, UniProt Q63380)) for N#Cc1ccc2c(c1)COC2(CCCN)c1ccc(F)cc1 (single isomer, unassigned; (+)) [(+)-Didesmethylcitalopram]
5.48

====

Target or system 5-HT Transporter (Homo sapiens); recorded quantity Ki.
The response must be a number in nM with no trailing unit.

> print(dat)
                                   compound                              tgt  measured.quantity  endpoint.value
1  N#Cc1ccc2c(c1)COC2(CCCN)c1ccc(F)cc1 (single isomer, unassigned; (+)) [(+)-Didesmethylcitalopram]  5-HT Transporter (Homo sapiens)                 Ki              90

For 5-HT Transporter (Homo sapiens), provide Ki of N#Cc1ccc2c(c1)COC2(CCCN)c1ccc(F)cc1 (single isomer, unassigned; (-)) [(−)-Didesmethylcitalopram] please.
5.8

The measurements presented in this section are drawn from patent US20040266864A1.
